assay: Inhibition of recombinant HIV integrase strand transfer activity; set-up: species or system Human immunodeficiency virus
pIC50: −log10 of the molar value.
READOUT KIND: pIC50

molecule=O=C(NCc1ccc(F)cc1)c1c(O)c2ncsc2n(-c2cccc([N+](=O)[O-])c2)c1=O readout_kind=pIC50 comparison_sign== reported_value=4.77
molecule=CS(=O)(=O)c1cccc(-n2c(=O)c(C(=O)NCc3ccc(F)cc3)c(O)c3ncsc32)c1 readout_kind=pIC50 comparison_sign== reported_value=6.03
molecule=CSc1cccc(-n2c(=O)c(C(=O)NCc3ccc(F)cc3)c(O)c3ncsc32)c1 readout_kind=pIC50 comparison_sign== reported_value=5.15
molecule=COC(=O)c1c(O)c2ncsc2n(Cc2ccc(OC)cc2)c1=O readout_kind=pIC50 comparison_sign== reported_value=5.38
molecule=COC(=O)c1c(O)c2ncsc2n(C)c1=O readout_kind=pIC50 comparison_sign=< reported_value=3.30
molecule=COC(=O)c1c(O)c2ncsc2n(-c2ccccc2)c1=O readout_kind=pIC50 comparison_sign=< reported_value=3.30
molecule=Cn1c(=O)c(C(=O)NCc2ccc(Cl)cc2)c(O)c2ncsc21 readout_kind=pIC50 comparison_sign== reported_value=5.68
molecule=COC(=O)c1c(O)c2ncsc2n(-c2ccc(OC)cc2)c1=O readout_kind=pIC50 comparison_sign=< reported_value=3.30
molecule=COC(=O)c1c(O)c2ncsc2n(C(C)C)c1=O readout_kind=pIC50 comparison_sign== reported_value=4.96
molecule=CC(C)n1c(=O)c(C(=O)NCc2ccc(F)cc2)c(O)c2ncsc21 readout_kind=pIC50 comparison_sign== reported_value=6.72
molecule=COC(=O)c1c(O)c2ncsc2n(-c2cccc([N+](=O)[O-])c2)c1=O readout_kind=pIC50 comparison_sign=< reported_value=3.30
molecule=Cn1c(=O)c(C(=O)NCc2ccc(F)cc2)c(O)c2nc(Cc3ccc(F)cc3)sc21 readout_kind=pIC50 comparison_sign== reported_value=3.82
molecule=O=C(NCc1ccc(F)cc1)c1c(O)c2nc(Cc3ccc(F)cc3)sc2n(-c2ccccc2)c1=O readout_kind=pIC50 comparison_sign== reported_value=5.40
molecule=O=C(NCc1ccc(F)cc1)c1c(O)c2ncsc2n(-c2ccccc2)c1=O readout_kind=pIC50 comparison_sign== reported_value=6.40
molecule=CCn1c(=O)c(C(=O)NCc2ccc(F)cc2)c(O)c2ncsc21 readout_kind=pIC50 comparison_sign== reported_value=7.52
molecule=COC(=O)c1c(O)c2ncsc2n(-c2cccc(SC)c2)c1=O readout_kind=pIC50 comparison_sign=< reported_value=3.30
molecule=COc1ccc(-n2c(=O)c(C(=O)NCc3ccc(F)cc3)c(O)c3ncsc32)cc1 readout_kind=pIC50 comparison_sign== reported_value=6.00
molecule=Cn1c(=O)c(C(=O)NCc2ccc(F)cc2)c(O)c2ncsc21 readout_kind=pIC50 comparison_sign== reported_value=6.15
molecule="C[S+]([O-])c1cccc(-n2c(=O)c(C(=O)NCc3ccc(F)cc3)c(O)c3ncsc32)c1 (stereo not drawn)" readout_kind=pIC50 comparison_sign== reported_value=5.70
molecule=COC(=O)c1c(O)c2ncsc2n(-c2cccc(C(F)(F)F)c2)c1=O readout_kind=pIC50 comparison_sign=< reported_value=3.30
molecule=O=C(NCc1ccc(F)cc1)c1c(O)c2ncsc2[nH]c1=O readout_kind=pIC50 comparison_sign== reported_value=5.82
molecule=CCn1c(=O)c(C(=O)OC)c(O)c2ncsc21 readout_kind=pIC50 comparison_sign== reported_value=5.91
molecule=COC(=O)c1c(O)c2nc(Cc3ccc(F)cc3)sc2n(C)c1=O readout_kind=pIC50 comparison_sign== reported_value=4.46
molecule=COC(=O)c1c(O)c2nc(Cc3ccc(F)cc3)sc2n(-c2ccccc2)c1=O readout_kind=pIC50 comparison_sign== reported_value=3.55
molecule=O=C(NCc1ccc(F)cc1)c1c(O)c2ncsc2n(-c2cccc(C(F)(F)F)c2)c1=O readout_kind=pIC50 comparison_sign== reported_value=5.15
molecule=COc1ccc(Cn2c(=O)c(C(=O)NCc3ccc(F)cc3)c(O)c3ncsc32)cc1 readout_kind=pIC50 comparison_sign== reported_value=5.40
molecule=COC(=O)c1c(O)c2ncsc2[nH]c1=O readout_kind=pIC50 comparison_sign=< reported_value=3.30
molecule="O=C(/C=C(\\O)c1nc[nH]n1)c1ccc(Cc2ccc(F)cc2)o1 [S-1360]" readout_kind=pIC50 comparison_sign== reported_value=6.80
